ASSAY_TARGET: Neurogenic locus notch homolog protein 2 (Homo sapiens) (UniProt Q04721)
Sequence (Q04721 whole entry, looked up): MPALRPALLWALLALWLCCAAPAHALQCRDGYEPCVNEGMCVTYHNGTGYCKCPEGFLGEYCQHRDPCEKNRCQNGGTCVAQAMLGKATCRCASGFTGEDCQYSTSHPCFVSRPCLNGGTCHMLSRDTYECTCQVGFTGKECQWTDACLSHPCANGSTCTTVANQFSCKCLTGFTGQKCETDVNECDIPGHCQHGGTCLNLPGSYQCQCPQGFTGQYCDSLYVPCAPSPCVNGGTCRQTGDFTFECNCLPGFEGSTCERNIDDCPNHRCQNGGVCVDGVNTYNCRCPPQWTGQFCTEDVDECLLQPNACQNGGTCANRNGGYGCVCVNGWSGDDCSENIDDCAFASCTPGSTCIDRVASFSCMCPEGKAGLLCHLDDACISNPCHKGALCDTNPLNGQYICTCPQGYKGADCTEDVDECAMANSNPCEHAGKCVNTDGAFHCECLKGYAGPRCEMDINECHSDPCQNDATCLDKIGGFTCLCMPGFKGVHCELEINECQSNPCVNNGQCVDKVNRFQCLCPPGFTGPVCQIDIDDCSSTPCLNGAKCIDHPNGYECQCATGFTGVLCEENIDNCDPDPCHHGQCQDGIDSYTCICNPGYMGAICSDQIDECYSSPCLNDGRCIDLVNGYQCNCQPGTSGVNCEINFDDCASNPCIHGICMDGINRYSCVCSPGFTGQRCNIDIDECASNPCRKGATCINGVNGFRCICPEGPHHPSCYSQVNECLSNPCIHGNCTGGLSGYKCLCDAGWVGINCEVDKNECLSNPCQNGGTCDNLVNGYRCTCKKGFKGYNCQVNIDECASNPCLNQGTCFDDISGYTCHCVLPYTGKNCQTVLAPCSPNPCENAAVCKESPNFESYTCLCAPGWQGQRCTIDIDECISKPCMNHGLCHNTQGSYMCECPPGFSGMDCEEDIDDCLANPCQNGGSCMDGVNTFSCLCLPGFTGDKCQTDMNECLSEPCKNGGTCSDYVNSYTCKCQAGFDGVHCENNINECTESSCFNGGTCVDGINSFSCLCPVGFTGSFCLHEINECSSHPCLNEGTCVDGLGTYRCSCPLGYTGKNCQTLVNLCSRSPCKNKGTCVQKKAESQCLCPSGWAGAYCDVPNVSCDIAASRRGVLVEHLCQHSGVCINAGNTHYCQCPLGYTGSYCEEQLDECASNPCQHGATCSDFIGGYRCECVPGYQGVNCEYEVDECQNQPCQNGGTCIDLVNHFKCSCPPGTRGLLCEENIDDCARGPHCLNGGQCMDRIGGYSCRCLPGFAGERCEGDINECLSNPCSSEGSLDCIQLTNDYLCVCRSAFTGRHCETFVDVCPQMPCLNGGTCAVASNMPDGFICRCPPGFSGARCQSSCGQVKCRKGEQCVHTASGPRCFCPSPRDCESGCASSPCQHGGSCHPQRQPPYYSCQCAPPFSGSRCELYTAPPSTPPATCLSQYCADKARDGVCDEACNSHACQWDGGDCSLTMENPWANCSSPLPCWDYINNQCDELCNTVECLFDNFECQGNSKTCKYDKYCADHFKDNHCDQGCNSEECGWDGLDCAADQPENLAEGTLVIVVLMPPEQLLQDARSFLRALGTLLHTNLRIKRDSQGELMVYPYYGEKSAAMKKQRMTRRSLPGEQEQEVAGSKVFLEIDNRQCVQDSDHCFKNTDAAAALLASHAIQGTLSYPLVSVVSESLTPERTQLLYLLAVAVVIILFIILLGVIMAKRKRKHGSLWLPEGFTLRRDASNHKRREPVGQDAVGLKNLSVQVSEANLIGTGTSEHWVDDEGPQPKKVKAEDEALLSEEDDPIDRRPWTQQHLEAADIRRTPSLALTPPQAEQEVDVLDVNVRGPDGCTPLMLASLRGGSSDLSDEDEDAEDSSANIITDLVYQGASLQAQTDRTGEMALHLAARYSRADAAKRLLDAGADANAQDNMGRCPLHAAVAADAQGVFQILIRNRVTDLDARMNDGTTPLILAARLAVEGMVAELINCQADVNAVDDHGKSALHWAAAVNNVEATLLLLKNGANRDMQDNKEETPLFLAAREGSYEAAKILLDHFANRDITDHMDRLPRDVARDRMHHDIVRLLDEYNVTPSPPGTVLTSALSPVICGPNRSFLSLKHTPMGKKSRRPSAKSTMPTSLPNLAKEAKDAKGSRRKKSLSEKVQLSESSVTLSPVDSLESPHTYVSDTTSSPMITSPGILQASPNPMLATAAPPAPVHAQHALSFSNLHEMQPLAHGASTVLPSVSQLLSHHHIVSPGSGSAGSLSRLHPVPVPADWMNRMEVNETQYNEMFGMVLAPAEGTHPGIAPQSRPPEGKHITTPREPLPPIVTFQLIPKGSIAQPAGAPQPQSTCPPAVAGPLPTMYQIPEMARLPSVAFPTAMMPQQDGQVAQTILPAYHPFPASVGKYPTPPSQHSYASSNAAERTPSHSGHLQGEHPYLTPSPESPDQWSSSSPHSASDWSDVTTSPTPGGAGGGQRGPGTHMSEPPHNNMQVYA
TEST_PROTOCOL: Notch2 binders on small-molecule microarrays, primary screen, biochemical, small-molecule microarray, 635 nm fluorescence, stem cell growth factors (AID 1073)
CONDITIONS_USED: Notch2 binding, higher = more signal
Binary classification by composite z-score, with 1 as an inclusive lower bound for satisfied; all other cases are not satisfied.

Record excerpt, results attached:
Please indicate if the recorded composite z-score for CN1C2C=C(CCCO)C(C3C(=O)N(C(N)=O)C(=O)C32)C1c1ccc(CN2CCCC2)cc1 (stereo not drawn) meets or exceeds 1.
not satisfied

Please indicate if the recorded composite z-score for CCCCCC1=C2CNC(CCC)(C(=O)OC)C=C2C(C)C1=O (stereo not drawn) meets or exceeds 1.
satisfied

Please indicate if the recorded composite z-score for `C=C(/C(=C/C[C@@H](OC(C)=O)c1ccc(OCCO)cc1)c1cnc2ccccc2c1)C(C)C` meets or exceeds 1.
not satisfied

Please indicate if the recorded composite z-score for `COC(=O)[C@@]1(Cc2ccccc2)[C@H]2c3cc(C(=O)N(C)C)n(CCSCCO)c3C[C@H]2CN1C(=O)c1ccccc1` meets or exceeds 1.
satisfied

Please indicate if the recorded composite z-score for `CCCCC(=C=CC[C@@H](O)c1ccccc1OCCO)CCO` meets or exceeds 1.
not satisfied

Please indicate if the recorded composite z-score for `CCOC(=O)C=Cc1cc([N+](=O)[O-])ccc1O` meets or exceeds 1.
not satisfied

Please indicate if the recorded composite z-score for `COCCCNC(=O)[C@@]1(Cc2ccccc2N=[N+]=[N-])N=C(c2ccc(OCCCO)cc2)O[C@H]1c1ccccc1N=[N+]=[N-]` meets or exceeds 1.
satisfied

Now consider the entry below.
Please indicate if the recorded composite z-score for `COC(=O)c1c(CC[C@@H](CO)NC(=O)N[C@H](Cn2cc(Cc3ccccc3)nn2)C(C)C)oc(C(C)=O)c1C(=O)OC` meets or exceeds 1.
not satisfied

###

Tested on: PRMT1 (protein arginine N-methyltransferase 1)
TEST_PROTOCOL: PRMT1 binders on small-molecule microarrays, primary screen, biochemical, small-molecule microarray, 635 nm fluorescence (AID 1088);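 further: binding of Prmt1 protein to compounds spotted on small-molecule microarray slides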
CONDITIONS_USED: small-molecule microarray binding, higher = more signal
Binary classification by composite z-score, with 1 as an inclusive lower bound for Satisfied; all other cases are Not satisfied.

Record excerpt, results attached:
Please indicate if the recorded composite z-score for `O=C1c2ccccc2[C@](Cc2ccccc2I)(C(=O)NC2CC2)[C@H](c2ccc(CO)cc2)N1Cc1ccccc1` meets or exceeds 1.
Not satisfied

Please indicate if the recorded composite z-score for CCCCCN1CC=CC23O[C@@H]4/C=C\CCCOC(=O)C4[C@H]2C(=O)N(CCCO)[C@@H]3C1=O (stereo partly drawn) meets or exceeds 1.
Not satisfied

Please indicate if the recorded composite z-score for CN1C(=O)C2C=CC(C(O)C3CCCCC3)N(Nc3ccc([N+](=O)[O-])cc3[N+](=O)[O-])C2C1=O (stereo not drawn) meets or exceeds 1.
Satisfied

Please indicate if the recorded composite z-score for `COCCOC(=O)N1C(=O)[C@@]2(c3cc(C#CC4=CCCCC4)ccc31)[C@H](C(N)=O)[C@H]1C(=O)O[C@H](c3ccccc3)[C@H](c3ccccc3)N1[C@@H]2c1ccc(OCCO)cc1` meets or exceeds 1.
Satisfied

Please indicate if the recorded composite z-score for `CCOC(=O)C[C@H]1[C@H](OC(=O)c2ccc(C(=O)c3ccccc3)cc2)[C@@H](NC(=O)c2ccc(-c3ccccc3)cc2)c2cc(OCCCO)ccc2N1C(=O)c1ccccc1` meets or exceeds 1.
Satisfied

Further cases:
Please indicate if the recorded composite z-score for `CC(C)C[C@@H]1NC(=O)[C@H]2C[C@@H](C(=O)NCCCCCCN)[C@@H](c3ccc(O)cc3)N2C1=O` meets or exceeds 1.
Satisfied

Please indicate if the recorded composite z-score for C=CCC(OC(C)=O)[C@@H]1[C@@H](N(Cc2cccc3ccccc23)C(=O)c2ccc(-c3ccccc3)cc2)c2cc(OCCCO)ccc2N1C(=O)Cc1ccc(OC)cc1 (stereo partly drawn) meets or exceeds 1.
Not satisfied

Please indicate if the recorded composite z-score for O=C1OCCC/C=C\[C@H]2OC34C=CCN(Cn5nnc6ccccc65)C(=O)[C@H]3N(CCO)C(=O)[C@@H]4C12 (stereo partly drawn) meets or exceeds 1.
Not satisfied

Please indicate if the recorded composite z-score for `COc1ccc(CCNC(=O)[C@@H]2c3ccccc3C(=O)N(C3Cc4ccccc4C3)[C@H]2c2ccc(CO)cc2)cc1` meets or exceeds 1.
Satisfied

Please indicate if the recorded composite z-score for `[N-]=[N+]=NCc1ccccc1C[C@]1(C(=O)O)N=C(c2ccc(OCCCO)cc2)O[C@H]1c1ccccc1N=[N+]=[N-]` meets or exceeds 1.
Satisfied

Please indicate if the recorded composite z-score for `COC(=O)[C@@]1(Cc2ccc(F)cc2)[C@H]2c3cc(C(=O)N(C)C)n(Cc4nc5ccccc5[nH]4)c3C[C@H]2CN1C(=O)c1ccccc1` meets or exceeds 1.
Not satisfied

Please indicate if the recorded composite z-score for `C=C(CCCC)C(=O)CC[C@@H](OC(=O)c1cccnc1)c1ccc(CO)o1` meets or exceeds 1.
Satisfied

Please indicate if the recorded composite z-score for COCCCNC(=O)C1N=C(c2ccc(OCCCO)cc2)N(c2ccccc2)O1 (stereo not drawn) meets or exceeds 1.
Satisfied

Please indicate if the recorded composite z-score for COc1ccc(C(O)C2C=CC3C(=O)N(C)C(=O)C3N2N2CCCCC2)c2ccccc12 (stereo not drawn) meets or exceeds 1.
Satisfied

Please indicate if the recorded composite z-score for `C=C[C@H](COC(C)=O)N(C(=O)OC(C)(C)C)S(=O)(=O)c1ccc(Br)cc1` meets or exceeds 1.
Not satisfied

Please indicate if the recorded composite z-score for `Cc1ccc(S[C@]2(C(=O)NCCN3CCOCC3)CC(=O)N(Cc3ccccc3)[C@@H]2c2ccc(CO)cc2I)cc1` meets or exceeds 1.
Not satisfied

Please indicate if the recorded composite z-score for `C=CCNC(=O)[C@H]1[C@@H]2C(=O)O[C@@H](c3ccccc3)[C@@H](c3ccccc3)N2[C@@H](c2ccc(O)cc2)[C@]12C(=O)N(C(=O)OCCOC)c1ccc(C#CCNC(N)=O)cc12` meets or exceeds 1.
Satisfied

Please indicate if the recorded composite z-score for `CO[C@H]1O[C@H](CO)[C@@H](OC(=O)Nc2ccc(Br)cc2)[C@H](OC(=O)c2cc3ccccc3[nH]2)[C@H]1OC(=O)c1cc2ccccc2[nH]1` meets or exceeds 1.
Satisfied

###

TEST_PROTOCOL: modulators of HCV replicon luciferase signal, primary screen, HCV replication inhibitor project, Huh7 cells, luciferase reporter (AID 1109);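 further: huh7 hepatoma cells harbouring a luciferase neomycin HCV replicon reporter; luciferase luminescence as measure of HCV replicon replication; test concentration not given here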
CONDITIONS_USED: 48 h, higher = more signal
READOUT_NAME: z-score
The answer should be a number; do not append a unit.

Fill in z-score for record `COC(=O)[C@@]1(Cc2ccc(F)cc2)[C@@H]2[C@@H](CC(=O)[C@H]2CC(=O)C(=O)N(C)C)CN1C(=O)c1ccccc1`
-2.53

Further cases:
Fill in z-score for record CC(CO)N1C(=O)[C@@H]2C3C(=O)OCCC/C=C\[C@H]3OC23C=CCN(c2ccc4ccccc4c2)C(=O)[C@@H]13 (stereo not given in full)
0.793

Fill in z-score for record `CN(C)C(=O)[C@@]1(Cc2ccccc2)N=C(c2ccc(OCCCO)cc2)O[C@H]1c1ccccc1N=[N+]=[N-]`
-2.79

Fill in z-score for record COC(=O)C=C(CC(O)c1cccc(Cl)c1)OC (stereo not given)
-0.923

Fill in z-score for record `Cc1ccc(S[C@]2(C(=O)NC(C)C)CC(=O)N(Cc3ccccc3Cl)[C@@H]2c2ccc(CO)cc2I)cc1`
-2.47

Fill in z-score for record `CCOC(=O)C=Cc1cc([N+](=O)[O-])ccc1O`
-1.47

Fill in z-score for record CCOC(=O)C1=CCC(c2ccccc2)N(S(=O)(=O)CC[Si](C)(C)C)C1 (stereo not given)
-0.327

Fill in z-score for record O=C1OCCC/C=C\[C@H]2OC34C=CCN(CCN5CCOCC5)C(=O)[C@H]3N(CCCO)C(=O)[C@@H]4C12 (stereo not given in full)
-0.61

Fill in z-score for record `C=C(CCCC)/C(=C/C[C@@H](OC(C)=O)c1ccccc1OCCO)c1cnc2ccccc2c1`
-2.25

Fill in z-score for record `CO[C@H]1O[C@H](CO)[C@@H](OC(=O)Nc2ccc(Br)cc2)[C@H](OC(=O)c2cc3ccccc3[nH]2)[C@H]1OC(=O)c1cc2ccccc2[nH]1`
-3.51

Fill in z-score for record `CN(C)CCCC[C@@H]1NC(=O)[C@H]2C[C@@H](C(=O)NCCCCCNC(=O)CS)[C@@H](c3cccc(OCCO)c3)N2C1=O`
-0.556

Fill in z-score for record `NCCCCCNC(=O)[C@@H]1C[C@@H]2C(=O)N[C@@H](Cc3ccccc3)C(=O)N2[C@@H]1c1cccc(OCCO)c1`
-0.988

Fill in z-score for record Cc1ccc(C(C)CC(O)C2C=CC3C(=O)N(c4ccccc4)C(=O)C3N2Nc2ccc([N+](=O)[O-])cc2)o1 (stereo not given)
-0.212

Fill in z-score for record [N-]=[N+]=NCc1ccccc1C[C@@]1(C(=O)NCC(O)CO)N=C(c2ccc(OCCCO)cc2)O[C@@H]1c1ccccc1N=[N+]=[N-] (stereo not given in full)
-2.72

Fill in z-score for record `O=C(NCc1ccccc1)[C@@]1(Cc2ccccc2)N=C(c2ccc(OCCCO)cc2)O[C@H]1c1ccccc1`
-2.57
